Provide the recorded normalized RNA/DNA level with ligand (log10) for the entries that follow.
B1: library; a variant is named by its letters at N, in order (parent)
chain: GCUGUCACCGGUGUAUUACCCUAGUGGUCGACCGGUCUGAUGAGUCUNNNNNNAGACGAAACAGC

variants of: B1; test: normalized RNA/DNA level with ligand (relative to sTRSVctl = 100) (log10 (% of sTRSVctl)); ligand: hypoxanthine (xanthine aptamer); higher = less ribozyme self-cleavage, higher mRNA level; conditions: ligand concentration (+) RNA-Seq: 5 mM, HEK293T, reporter: mCherry (pCS4076), ligand present: yes
The answer should be written as a number, with no unit following it.

INPUT: Consider the variant ACUUGC . State its measured normalized RNA/DNA level with ligand (log10).
OUTPUT: 1.97

INPUT: Give the value of normalized RNA/DNA level with ligand (log10) reported for the following: AGUGAC
OUTPUT: 1.91

INPUT: Note normalized RNA/DNA level with ligand (log10) for the variant shown: GCUCCC
OUTPUT: 1.93

INPUT: Quickly give me recorded normalized RNA/DNA level with ligand (log10) for CAACCG
OUTPUT: 1.95

INPUT: Consider the variant GCGUGC . State its measured normalized RNA/DNA level with ligand (log10).
OUTPUT: 1.95

INPUT: Note normalized RNA/DNA level with ligand (log10) for the variant shown: UCAGGG
OUTPUT: 1.95

INPUT: Assign normalized RNA/DNA level with ligand (log10) to the following record: ACAUCC
OUTPUT: 1.98

INPUT: Using the record for GACAGG , state its measured normalized RNA/DNA level with ligand (log10).
OUTPUT: 1.76

INPUT: Give the reported value of normalized RNA/DNA level with ligand (log10) for this record: GGACUC
OUTPUT: 1.93

INPUT: Hello, please tell me recorded normalized RNA/DNA level with ligand (log10) for this one: GUGGGA
OUTPUT: 1.92
